// values below are reported log10(MIC)
- System: Mycobacterium tuberculosis
- ASSAY EXPLANATION: Antimycobacterial activity against Mycobacterium tuberculosis H37Rv assessed as reduction in microbial growth after 7 days by alamar blue assay
- Assay type: functional
- TEST CONDITIONS: 168 h
Starred links: 1 amine or outer side, 2 acyl side, 3 side chain; linkers in the order of their positions; H or OH if unused. Non-standard residues stand in square brackets, D forms with d. Residues, ends and D or L forms follow the SMILES beside them. Trp(1-CMe2(2S-oxiranyl)) = CC(C)([C@H]1CO1)n1cc(C[C@H](N)C(=O)O)c2ccccc21; Trp(1-(1,1-Me2-allyl)) = C=CC(C)(C)n1cc(C[C@H](N)C(=O)O)c2ccccc21; Tyr(3-NO2) = N[C@@H](Cc1ccc(O)c([N+](=O)[O-])c1)C(=O)O; NMeLeu(5-OH,4R) = CN[C@@H](C[C@@H](C)CO)C(=O)O; X2 = C[C@H](CO)C[C@@H](C(=O)[*:2])N(C)[*:1]; Gly(E-crotyl) = C/C=C/C[C@H](N)C(=O)O; NMeL = CN[C@@H](CC(C)C)C(=O)O
MEASURE NAME: log10(MIC) (log10 of the value in µM)

COMPOUND	log10(MIC)
C/C=C/C[C@@H]1NC(=O)[C@H](CC(C)C)N2C(=O)[C@H](C[C@](C)(O)[C@H]2O)N(C)C(=O)[C@H](C)NC(=O)[C@H](Cc2ccc(O)c([N+](=O)[O-])c2)NC(=O)[C@H](CC(C)C)N(C)C(=O)[C@H](Cc2cn(C(C)(C)[C@H]3CO3)c3ccccc23)NC1=O	-1.52
C/C=C/C[C@@H]1NC(=O)[C@H](CC(C)C)NC(=O)[C@H](C[C@H](C)CO)N(C)C(=O)[C@H](C)NC(=O)[C@H](Cc2ccc(O)c([N+](=O)[O-])c2)NC(=O)[C@H](CC(C)C)N(C)C(=O)[C@H](Cc2cn(C(C)(C)[C@H]3CO3)c3ccccc23)NC1=O (cyclo(A[X2]L[Gly(E-crotyl)][Trp(1-CMe2(2S-oxiranyl))][NMeL][Tyr(3-NO2)]))	-0.60
C/C=C/C[C@@H]1NC(=O)[C@H](CC(C)C)NC(=O)[C@H](C[C@@H](C)CO)N(C)C(=O)[C@H](C)NC(=O)[C@H](Cc2ccc(O)c([N+](=O)[O-])c2)NC(=O)[C@H](CC(C)C)N(C)C(=O)[C@H](Cc2cn(C(C)(C)[C@H]3CO3)c3ccccc23)NC1=O (cyclo(A[NMeLeu(5-OH,4R)]L[Gly(E-crotyl)][Trp(1-CMe2(2S-oxiranyl))][NMeL][Tyr(3-NO2)]))	-0.36
C/C=C/C[C@@H]1NC(=O)[C@H](CC(C)C)N2C(=O)[C@H](CC(C)[C@H]2O)N(C)C(=O)[C@H](C)NC(=O)[C@H](Cc2ccc(O)c([N+](=O)[O-])c2)NC(=O)[C@H](CC(C)C)N(C)C(=O)[C@H](Cc2cn(C(C)(C)[C@H]3CO3)c3ccccc23)NC1=O (some centres not stated)	-1.70
C/C=C/C[C@@H]1NC(=O)[C@H](CC(C)C)N2C(=O)[C@H](C[C@@H](C)[C@H]2O)N(C)C(=O)[C@H](C)NC(=O)[C@H](Cc2ccc(O)c([N+](=O)[O-])c2)NC(=O)[C@H](CC(C)C)N(C)C(=O)[C@H](Cc2cn(C(C)(C)[C@H](O)CO)c3ccccc23)NC1=O	-1.00
C=CC(C)(C)n1cc(C[C@@H]2NC(=O)[C@H](C/C=C/C)NC(=O)[C@H](CC(C)C)NC(=O)[C@H](CC(C)C)N(C)C(=O)[C@H](C)NC(=O)[C@H](Cc3ccc(O)c([N+](=O)[O-])c3)NC(=O)[C@H](CC(C)C)N(C)C2=O)c2ccccc21 (cyclo(A[NMeL]L[Gly(E-crotyl)][Trp(1-(1,1-Me2-allyl))][NMeL][Tyr(3-NO2)]))	0.23
NNC(=O)c1ccncc1	-0.34
